Target: ScPex13
Test: SPOT peptide array binding signal intensity (averaged, normalized) (arbitrary units (background-subtracted, floor 0; scale differs between SH3 domains)); higher = stronger binding of the SH3 domain to the peptide
Listing of recorded SPOT peptide array binding signal intensity by entry.
Test Readout: SPOT peptide array binding signal intensity

>  <Binder>
STPQTMRQAPKRPDA

>  <Censor Symbol>
=

>  <Val>
339

$$$$
>  <Binder>
RSKRLFPVRPMATAH

>  <Censor Symbol>
=

>  <Val>
3.5

$$$$
>  <Binder>
APKREAPKPPANTSP

>  <Censor Symbol>
=

>  <Val>
47.8

$$$$
>  <Binder>
NFLRLLIGLPSQNEL

>  <Censor Symbol>
≤

>  <Val>
0

$$$$
>  <Binder>
HAPPLPPTAPPPPSL

>  <Censor Symbol>
≤

>  <Val>
0

$$$$
>  <Binder>
WRPRIVPILPYITRL

>  <Censor Symbol>
=

>  <Val>
1

$$$$
>  <Binder>
LRIKRKPVQTFFEFI

>  <Censor Symbol>
=

>  <Val>
18

$$$$
